Source listed as paper PMC11079024.

# target.or.system: C. elegans (N2) complex I (NADH:ubiquinone oxidoreductase) (Caenorhabditis elegans, UniProt P24887+Q93873+Q94360)
# Sequence (Q94360 17-199): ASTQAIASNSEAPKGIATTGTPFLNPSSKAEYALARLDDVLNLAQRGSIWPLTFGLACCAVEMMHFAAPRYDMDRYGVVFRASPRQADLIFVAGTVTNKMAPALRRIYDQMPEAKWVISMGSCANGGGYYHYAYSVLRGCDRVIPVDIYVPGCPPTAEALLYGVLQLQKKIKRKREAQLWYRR
# Sequence (P24887 whole entry): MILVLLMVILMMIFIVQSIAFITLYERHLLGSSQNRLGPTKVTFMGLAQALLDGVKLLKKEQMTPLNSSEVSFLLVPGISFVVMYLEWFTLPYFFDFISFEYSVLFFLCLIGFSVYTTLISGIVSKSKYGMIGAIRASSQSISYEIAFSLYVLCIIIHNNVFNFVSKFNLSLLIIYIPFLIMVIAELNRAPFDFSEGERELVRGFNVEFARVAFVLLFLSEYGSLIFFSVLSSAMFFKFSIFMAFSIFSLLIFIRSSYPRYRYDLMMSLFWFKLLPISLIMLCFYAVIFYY
# Sequence (Q93873 31-482): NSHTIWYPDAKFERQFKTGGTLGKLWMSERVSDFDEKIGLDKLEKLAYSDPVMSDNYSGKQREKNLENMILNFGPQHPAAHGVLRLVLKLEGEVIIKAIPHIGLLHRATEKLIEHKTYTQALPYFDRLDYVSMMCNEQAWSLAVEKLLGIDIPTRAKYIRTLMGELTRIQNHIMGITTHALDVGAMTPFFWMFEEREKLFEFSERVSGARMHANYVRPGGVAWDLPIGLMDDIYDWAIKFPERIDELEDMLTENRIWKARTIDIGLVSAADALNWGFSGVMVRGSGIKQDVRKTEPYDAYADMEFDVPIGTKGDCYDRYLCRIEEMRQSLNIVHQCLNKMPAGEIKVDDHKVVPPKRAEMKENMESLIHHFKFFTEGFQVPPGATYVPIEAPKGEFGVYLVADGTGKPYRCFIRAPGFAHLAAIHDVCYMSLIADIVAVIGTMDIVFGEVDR
# assay.remarks: biochemical
# Format: biochemical
# details: Dose 1.5 µM; read-out: C. elegans mitochondrial complex I activity
value.kind: activity at 1.5 µM (%)
Quick reminder: number only, in %, skip the unit.

Consider the reported activity at 1.5 µM for these compounds:
compound | measurement.unit | activity at 1.5 µM
FC(F)(F)c1cccc(OCCCCn2cnc3ccccc32)c1 | % | 67.6
Cc1nc2ccccc2n1CCOc1ccccc1 | % | 71.3
Cc1ccccc1OCCCCn1cnc2ccccc21 | % | 3.27
Clc1ccc(Cn2cnc3ccccc32)cc1Cl | % | 69.7
Nc1nc2ccccc2n1Cc1ccc(Cl)cc1 | % | 25.2

Name the reported activity at 1.5 µM value associated with the compound `CCc1cc(OCCn2cnc3ccccc32)ccc1Cl` 60.7

Name the reported activity at 1.5 µM value associated with the compound `CC(C)Oc1cccc(OCCn2cnc3ccccc32)c1` 76.4

Name the reported activity at 1.5 µM value associated with the compound `Cc1ccc(SCCCn2cnc3ccccc32)cc1` 33.2

Name the reported activity at 1.5 µM value associated with the compound `CCCn1c(COc2ccc(C)cc2)nc2ccccc21` 107

Name the reported activity at 1.5 µM value associated with the compound `Clc1ccc(SCCCCn2cnc3ccccc32)cc1` 39.1

====

Each entry below lists one item and its recorded activity at 0.025 µM value.
# target.or.system: C. elegans (N2) complex I (NADH:ubiquinone oxidoreductase) (Caenorhabditis elegans, UniProt P24887+Q93873+Q94360)
# assay.remarks: biochemical
# Format: biochemical
# details: Dose 0.025 µM; read-out: C. elegans mitochondrial complex I activity
Quick reminder: number only, in %, skip the unit.

Consider the reported activity at 0.025 µM for these molecules:
smiles.code | measurement.unit | activity at 0.025 µM
Cc1nc2ccccc2n1Cc1ccc(Cl)c(Cl)c1 | % | 78.8
FC(F)(F)c1cccc(OCCCCn2cnc3ccccc32)c1 | % | 105

Name the reported activity at 0.025 µM value associated with the molecule `Nc1nc2ccccc2n1Cc1ccc(Cl)cc1` 78.8

Name the reported activity at 0.025 µM value associated with the molecule `Cc1ccc(CSCc2nc3ccccc3[nH]2)cc1` 99.3

====

# target.or.system: B. taurus (heart) complex I (Bos taurus, UniProt P03887+P17694+P42026)
# Sequence (P03887 whole entry): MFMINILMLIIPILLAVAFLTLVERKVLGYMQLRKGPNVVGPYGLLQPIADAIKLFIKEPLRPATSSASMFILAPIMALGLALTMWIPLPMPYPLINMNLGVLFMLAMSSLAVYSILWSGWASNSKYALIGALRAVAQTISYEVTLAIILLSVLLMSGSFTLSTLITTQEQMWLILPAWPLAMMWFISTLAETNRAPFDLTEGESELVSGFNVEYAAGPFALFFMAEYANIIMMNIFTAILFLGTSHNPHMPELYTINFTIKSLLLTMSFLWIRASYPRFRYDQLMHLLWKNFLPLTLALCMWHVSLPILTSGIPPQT
# Sequence (P17694 34-463): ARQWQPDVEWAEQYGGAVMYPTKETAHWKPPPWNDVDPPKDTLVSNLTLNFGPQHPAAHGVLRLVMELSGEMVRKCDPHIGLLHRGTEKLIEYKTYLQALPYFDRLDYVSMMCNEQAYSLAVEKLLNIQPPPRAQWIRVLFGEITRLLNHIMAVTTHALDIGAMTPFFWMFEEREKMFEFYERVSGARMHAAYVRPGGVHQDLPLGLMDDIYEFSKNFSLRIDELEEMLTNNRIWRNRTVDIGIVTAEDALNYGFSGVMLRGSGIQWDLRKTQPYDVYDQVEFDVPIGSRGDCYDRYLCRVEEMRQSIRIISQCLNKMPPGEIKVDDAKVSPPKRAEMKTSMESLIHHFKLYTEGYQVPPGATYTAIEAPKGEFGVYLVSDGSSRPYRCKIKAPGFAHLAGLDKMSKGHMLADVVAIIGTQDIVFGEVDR
# Sequence (P42026 38-216): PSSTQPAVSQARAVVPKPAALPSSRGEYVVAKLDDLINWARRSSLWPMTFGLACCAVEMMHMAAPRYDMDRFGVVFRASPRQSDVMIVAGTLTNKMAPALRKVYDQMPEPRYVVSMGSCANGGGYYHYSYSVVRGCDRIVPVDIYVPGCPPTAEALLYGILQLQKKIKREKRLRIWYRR
# assay.remarks: biochemical
# Type: biochemical
# details: Dose 37.5 µM; read-out: B. taurus mitochondrial complex I activity
Each entry below lists one item and its recorded activity at 37.5 µM value.
Quick reminder: number only, in %, skip the unit.

molecule | value.kind | observed.result
Cc1nc2ccccc2n1CCOc1ccccc1Cl | activity at 37.5 µM | 11.9
FC(F)(F)c1cccc(OCCCCn2cnc3ccccc32)c1 | activity at 37.5 µM | 9.66
CCc1cc(OCCn2cnc3ccccc32)ccc1Cl | activity at 37.5 µM | 2.74
Cc1ccc(C(C)C)c(OCC(O)Cn2cnc3ccccc32)c1 (stereo not shown) | activity at 37.5 µM | 13.4
Cc1ccc(OCCn2cnc3ccccc32)c(C)c1 | activity at 37.5 µM | 11.4
Clc1ccc(Cn2cnc3ccccc32)c(Cl)c1 | activity at 37.5 µM | 1.6

Name the reported activity at 37.5 µM value associated with the molecule `Cc1cccc(OCCn2c(C)nc3ccccc32)c1` 5.61

Name the reported activity at 37.5 µM value associated with the molecule `Clc1ccc(OCCn2cnc3ccccc32)c(Cl)c1` 7.81

Name the reported activity at 37.5 µM value associated with the molecule `Brc1ccccc1OCCCCn1cnc2ccccc21` 3.45

Name the reported activity at 37.5 µM value associated with the molecule `Cc1nc2ccccc2n1Cc1ccc(Cl)c(Cl)c1` 0.14

====

# target.or.system: C. elegans (N2) complex I (NADH:ubiquinone oxidoreductase) (Caenorhabditis elegans, UniProt P24887+Q93873+Q94360)
# assay.remarks: biochemical
# Format: biochemical
# details: Dose 0.0025 µM; read-out: C. elegans mitochondrial complex I activity
value.kind: activity at 0.0025 µM (%)
Quick reminder: number only, in %, skip the unit.

compound | activity at 0.0025 µM, %
Cc1ccccc1OCCCn1c(C)nc2ccccc21 | 99.1
CC(C)Oc1cccc(OCCn2cnc3ccccc32)c1 | 88.5
FC(F)(F)c1cccc(OCCCCn2cnc3ccccc32)c1 | 110
Clc1ccc(OCCn2cnc3ccccc32)c(Cl)c1 | 106
Nc1nc2ccccc2n1Cc1ccc(Cl)cc1 | 93.8
Cc1nc2ccccc2n1Cc1ccc(Cl)c(Cl)c1 | 93.8
Clc1ccc(Cn2cnc3ccccc32)cc1Cl | 95.4
Brc1ccccc1OCCCCn1cnc2ccccc21 | 93.2

Name the reported activity at 0.0025 µM value associated with the compound `Clc1ccc(Cn2cnc3ccccc32)c(Cl)c1` 110

Name the reported activity at 0.0025 µM value associated with the compound `CCCn1c(COc2ccc(C)cc2)nc2ccccc21` 100

Name the reported activity at 0.0025 µM value associated with the compound `Cc1ccc(SCCCn2cnc3ccccc32)cc1` 100

Name the reported activity at 0.0025 µM value associated with the compound `Clc1ccccc1OCCCCn1cnc2ccccc21` 100

Name the reported activity at 0.0025 µM value associated with the compound Cc1ccc(C(C)C)c(OCC(O)Cn2cnc3ccccc32)c1 (stereo not drawn) 105

====

Each entry below lists one item and its recorded activity at 0.001 µM value.
# target.or.system: M. musculus (heart) complex I (Mus musculus, UniProt P03888+Q91WD5+Q9DC70)
# Sequence (Q91WD5 34-463): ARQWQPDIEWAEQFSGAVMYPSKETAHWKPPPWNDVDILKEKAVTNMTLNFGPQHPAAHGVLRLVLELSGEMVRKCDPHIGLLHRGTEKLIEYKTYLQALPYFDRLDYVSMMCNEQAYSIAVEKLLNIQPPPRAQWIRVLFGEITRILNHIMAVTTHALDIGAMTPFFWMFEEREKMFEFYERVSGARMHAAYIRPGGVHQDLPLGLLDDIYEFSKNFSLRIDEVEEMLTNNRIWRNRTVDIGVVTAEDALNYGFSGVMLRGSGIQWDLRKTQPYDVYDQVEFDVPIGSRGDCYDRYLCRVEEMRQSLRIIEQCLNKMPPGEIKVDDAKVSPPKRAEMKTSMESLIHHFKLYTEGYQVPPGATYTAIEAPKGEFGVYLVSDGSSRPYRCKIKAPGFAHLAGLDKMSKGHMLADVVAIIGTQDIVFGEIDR
# Sequence (Q9DC70 36-224): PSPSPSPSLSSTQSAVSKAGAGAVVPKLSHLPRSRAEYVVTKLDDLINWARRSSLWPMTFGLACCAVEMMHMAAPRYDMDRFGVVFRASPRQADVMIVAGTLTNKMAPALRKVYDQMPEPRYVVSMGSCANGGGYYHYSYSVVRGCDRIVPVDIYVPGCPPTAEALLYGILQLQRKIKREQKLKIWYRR
# Sequence (P03888 whole entry): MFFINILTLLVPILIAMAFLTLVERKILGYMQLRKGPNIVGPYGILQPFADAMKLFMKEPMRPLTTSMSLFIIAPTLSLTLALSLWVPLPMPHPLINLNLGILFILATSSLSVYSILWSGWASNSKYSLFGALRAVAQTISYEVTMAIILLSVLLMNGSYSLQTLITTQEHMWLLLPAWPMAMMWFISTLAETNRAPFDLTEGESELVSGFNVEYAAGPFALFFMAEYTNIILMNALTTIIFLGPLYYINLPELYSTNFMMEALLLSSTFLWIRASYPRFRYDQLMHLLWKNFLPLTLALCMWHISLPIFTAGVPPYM
# assay.remarks: biochemical
# Assay type: biochemical
# details: M. musculus; dose 0.001 µM; Mean of replicates; read-out: Complex I activity, dose-response data
Quick reminder: number only, in %, skip the unit.

compound | target.or.system | activity at 0.001 µM [%]
COc1cc2c(cc1OC)C(c1ccc(-c3ccc(Cl)c(Cl)c3)o1)=NCC2 | M. musculus (heart) complex I (Mus musculus, UniProt P03888+Q91WD5+Q9DC70) | 103
COc1cc2c(cc1OC)C(C(C)c1ccc(CC(C)C)cc1)=NCC2 (stereo not shown) | M. musculus (heart) complex I (Mus musculus, UniProt P03888+Q91WD5+Q9DC70) | 105
COc1cc2c(cc1OC)C(/C=C/c1ccc(N(C)C)cc1)=NCC2 | M. musculus (heart) complex I (Mus musculus, UniProt P03888+Q91WD5+Q9DC70) | 104

Here is another compound to look at.
Name the reported activity at 0.001 µM value associated with the compound CC(C)Cc1ccc(C(C)c2nc3ccccc3n2C)cc1 (stereo not shown) 103

====

# target.or.system: C. elegans (N2) complex I (NADH:ubiquinone oxidoreductase) (Caenorhabditis elegans, UniProt P24887+Q93873+Q94360)
# assay.remarks: biochemical
# Type: biochemical
# details: 0.625 µM; wild-type C. elegans mitochondria; single replicate; read-out: percent (%) in vitro complex I activity relative to solvent control
# Protocol: Mitochondria were isolated from the following free-living nematode strains: C. elegans—N2, CB3474, ECA882, ECA917, ECA1075, ECA1080; C. briggsae—AF16; P. pacificus—PS312; and P. hermaphrodita—B178. With the exception of the P. hermaphrodita strain B178, adult worms of each strain were grown in bulk through liquid culture to obtain mitochondria in sufficient quantities. […]
Each entry below lists one item and its recorded remaining activity at 0.625 µM value.
Quick reminder: number only, in %, skip the unit.

Consider the reported remaining activity at 0.625 µM for these compounds:
compound | value.kind | observed.result
COc1cc2c(cc1OC)C(C(C)c1ccc(CC(C)C)cc1)=NCC2 (centres unmarked) [NPD10504] | remaining activity at 0.625 µM | 100
COc1cc2c(cc1OC)C(c1ccc(-c3ccc(Cl)c(Cl)c3)o1)=NCC2 [NPD3577] | remaining activity at 0.625 µM | 100
COc1cc2c(cc1OC)C(/C=C/c1ccc(N(C)C)cc1)=NCC2 [NPD6303] | remaining activity at 0.625 µM | 106
COC(=O)Nc1nc2ccc(C(=O)c3ccccc3)cc2[nH]1 [mebendazole, reference compound] | remaining activity at 0.625 µM | 100

Name the reported remaining activity at 0.625 µM value associated with the compound COc1ccc(Cc2nccc3cc(OC)c(OC)cc23)cc1OC [Papaverine, reference compound] 100

====

# System: L1 wild-type C. elegans
# details: caenorhabditis elegans
value.kind: LC50 (µM)
Quick reminder: number only, in µM, skip the unit.

Consider the reported LC50 for these compounds:
smiles.code | observed.result
O=C(NCCc1ccc(Cl)cc1)c1ccccc1C(F)(F)F | 4.43
COc1ccc(-c2cc(=Nc3ccccc3N)c3ccccc3o2)cc1 | 14.3
COc1ccc(-c2cc(=Nc3ccc(C)cc3)c3ccccc3o2)cc1OC | 35.3

Here is another compound to look at.
Name the reported LC50 value associated with the compound `COc1ccc(N=c2cc(-c3ccc(OC)c(OC)c3)oc3ccccc23)c(OC)c1` 22.2

====

# target.or.system: B. taurus (heart) complex I (Bos taurus, UniProt P03887+P17694+P42026)
# assay.remarks: biochemical
# Format: biochemical
# details: in vitro complex I dose response on B. taurus mitochondria; average of at least two biological replicates; fit in R (DRC); read-out: IC50 B. taurus complex I
value.kind: pIC50
Kindly note that pIC50 refers to -log10 of the concentration in mol/L and answer with the value alone.

Name the reported pIC50 value associated with the molecule `Cc1nc2ccccc2n1Cc1ccc(Br)cc1` 6.68
